Would you mind telling me the reported Population Fragmented Nuclei (%) of each entry?
system: Fibroblast; assay: Multiplex assay against human fibroblast; type: toxicity, cell-based; details: 12 h, 10 µM, compound concentration 10 uM, replicate 2
Don't forget the unit after the number, please.

Please review the following examples before continuing.
>  <compound>
N[C@](CC1c2ccccc2Oc2ccccc21)(C(=O)O)[C@H]1C[C@@H]1C(=O)O

>  <Population Fragmented Nuclei (%)>
20%

$$$$
>  <compound>
CC(C)(C)c1ccc(CSc2cnn(C(C)(C)C)c(=O)c2Cl)cc1

>  <Population Fragmented Nuclei (%)>
25%

$$$$
>  <compound>
CN(C)C/C=C/C(=O)Nc1ccc(C(=O)N2CCCC(Nc3ncc(Cl)c(-c4c[nH]c5ccccc45)n3)C2)cc1 (configuration not stated)

>  <Population Fragmented Nuclei (%)>
23%

$$$$
>  <compound>
CCCCCCNC(=O)Nc1ccc(S(=O)(=O)Nc2ccc(CCNC[C@H](O)COc3ccc(O)cc3)cc2)cc1

>  <Population Fragmented Nuclei (%)>
34%

$$$$
>  <compound>
CN1C[C@H](C(=O)N[C@]2(C)O[C@@]3(O)[C@@H]4CCCN4C(=O)[C@H](Cc4ccccc4)N3C2=O)C[C@@H]2c3cccc4[nH]cc(c34)C[C@H]21.CS(=O)(=O)O [DIHYDROERGOTAMINE MESYLATE]

>  <Population Fragmented Nuclei (%)>
33%

$$$$

Each compound below has a reported value. Please supply its Population Fragmented Nuclei (%).
1. Cl.Cl.OCCOCCN1CCN(C(c2ccccc2)c2ccc(Cl)cc2)CC1 (configuration not stated) [HYDROXYZINE HYDROCHLORIDE]
2. COC(c1ccccc1)(c1ccccc1)[C@H](Oc1nc(C)cc(C)n1)C(=O)O

Reply:
["19%", "39%"]
